Tested on: AD38 cells
Experiment: Viability of AD38 cells (Promega CellTiter-Glo) at the end of compound treatment
Format: cell-based
Settings: 10 μM compound, 6 days, luminescence normalized against DMSO control wells (controls being 100%)
measure: AD38 Viability Normalized Result (CPAM/DMSO %) at 10 μM
Numbers only; they are read as %.

Which AD38 Viability Normalized Result (CPAM/DMSO %) at 10 μM value belongs to O=C1Nc2cc(COCCc3ccccc3)ccc2Sc2ccccc21 [Compound 1501] ? 71

Another: O=C(NCCC1CCNCC1)c1ccc2c(c1)NC(=O)c1ccccc1S2 [Compound 1244] 103

Now consider COc1ccccc1CCNC(=O)c1ccc2c(c1)NC(=O)c1ccccc1S2 [Compound 1127] and answer again. 94

More entries:
For O=C(NCCc1cncs1)c1ccc2c(c1)NC(=O)c1c(F)cccc1S2 [Compound 1598] , what is its reported AD38 Viability Normalized Result (CPAM/DMSO %) at 10 μM? 93

Then what about the molecule O=C(NCc1cncs1)c1ccc2c(c1)NC(=O)c1ccccc1S2(=O)=O [Compound 1455] ? 89

Now the molecule O=C(NCCc1cncnc1)c1ccc2c(c1)NC(=O)c1ccccc1S2 [Compound 1290] 94

Entry O=C(Nc1ccc2ncoc2c1)c1ccc2c(c1)NC(=O)c1cc(F)ccc1S2 [Compound 1331] please 88

Now this one: O=C(CCC1CCCCC1)Nc1ccc2c(c1)NC(=O)c1ccccc1S2 [Compound 1207] 99

----------
Tested on: HBV viral production in AD38 cells
Assay: Viral load production in AD38 cells by quantitative PCR of the HBV core sequence in supernatant
Format: cell-based
Conditions: Hepatitis B virus, 144 h; 10 μM compound, 6 days at 37° C., viral load in supernatant compared against DMSO control wells; read-out: AD38 Viral Load (CpAM/DMSO %) at 10 μM
activity at 10 µM listing for selected compounds.
Please state the figure in %; there is no need to write the unit.

Recorded activity at 10 µM of O=C(NCc1cnco1)c1ccc2c(c1)NC(=O)c1cccc(F)c1S2 , please. 17

Field entry: O=C(Nc1cccnc1)c1ccc2c(c1)NC(=O)c1ccccc1S2 12

Please give the result for O=C1Nc2cc(S(=O)(=O)N3CCC(O)CC3)ccc2Sc2ccccc21 too. 115

Now the compound O=C(NCC1CC1)c1ccc2c(c1)NC(=O)c1ccccc1S2 39

Further cases:
Entry Cc1c(C(=O)NCCc2ccccn2)ccc2c1NC(=O)c1ccccc1S2 has what activity at 10 µM? 4

Okay, and CN1c2ccc(C(=O)NCCc3ccc(-c4ccccc4)cc3)cc2NC(=O)c2ccccc21 ? 1

Lookup NC(=O)c1ccc2c(c1)NC(=O)c1ccccc1S2 78

Also O=C(NCCc1cnco1)c1ccc2c(c1)NC(=O)c1ccccc1N2Cc1ccccc1 , if possible. 68

Also O=C(NCCc1cccnc1)c1ccc2c(c1)NC(=O)c1c(F)cccc1S2 ? 36

Can you handle O=C1Nc2c(cc(F)c(C(=O)NCc3cncnc3)c2F)Sc2ccccc21 next? 67

Also check Cc1nnc(CCNC(=O)c2ccc3c(c2)NC(=O)c2ccccc2S3)[nH]1 41

Same question, CN1c2ccc(C(=O)NCCc3ccccn3)cc2NC(=O)c2ccccc21 this time 1

Next record, please: CCN1c2ccc(C(=O)NCCc3cncnc3)cc2NC(=O)c2ccccc21 4

Next: O=C1Nc2cc(S(=O)(=O)NCc3ccccc3)ccc2Sc2ccccc21 39

For O=C(Nc1nc(-c2ccccc2)co1)c1ccc2c(c1)NC(=O)c1cc(F)ccc1S2 then? 27

Now give it for Cc1c(C(=O)NCCc2cncnc2)ccc2c1NC(=O)c1ccccc1S2 too. 12

Same question for O=C(Nc1ccccc1)c1ccc2c(c1)NC(=O)c1cc(F)ccc1S2 please. 16

Repeat with O=C(Nc1cccc(-c2cncs2)c1)c1ccc2c(c1)NC(=O)c1cc(F)ccc1S2 28

Cool, now O=C(Nc1nc2ccccc2o1)c1ccc2c(c1)NC(=O)c1cc(F)ccc1S2 98

Could you do the same for O=C(NC[C@H](CO)c1ccccc1)c1ccc2c(c1)NC(=O)c1ccccc1S2 , please? 12

Can you handle COc1ccc2c(c1)Sc1ccc(C(=O)NCCC3CCCCC3)cc1NC2=O next? 6

Next: O=C(Nc1nc2ccc(F)cc2s1)c1ccc2c(c1)NC(=O)c1ccccc1S2(=O)=O 32
